All figures here come from patent US8741899B2.

tested_system: Human Cav3.2 Channels (Homo sapiens, UniProt O95180)
Construct: expressed in transfected cells
Sequence (O95180 whole entry): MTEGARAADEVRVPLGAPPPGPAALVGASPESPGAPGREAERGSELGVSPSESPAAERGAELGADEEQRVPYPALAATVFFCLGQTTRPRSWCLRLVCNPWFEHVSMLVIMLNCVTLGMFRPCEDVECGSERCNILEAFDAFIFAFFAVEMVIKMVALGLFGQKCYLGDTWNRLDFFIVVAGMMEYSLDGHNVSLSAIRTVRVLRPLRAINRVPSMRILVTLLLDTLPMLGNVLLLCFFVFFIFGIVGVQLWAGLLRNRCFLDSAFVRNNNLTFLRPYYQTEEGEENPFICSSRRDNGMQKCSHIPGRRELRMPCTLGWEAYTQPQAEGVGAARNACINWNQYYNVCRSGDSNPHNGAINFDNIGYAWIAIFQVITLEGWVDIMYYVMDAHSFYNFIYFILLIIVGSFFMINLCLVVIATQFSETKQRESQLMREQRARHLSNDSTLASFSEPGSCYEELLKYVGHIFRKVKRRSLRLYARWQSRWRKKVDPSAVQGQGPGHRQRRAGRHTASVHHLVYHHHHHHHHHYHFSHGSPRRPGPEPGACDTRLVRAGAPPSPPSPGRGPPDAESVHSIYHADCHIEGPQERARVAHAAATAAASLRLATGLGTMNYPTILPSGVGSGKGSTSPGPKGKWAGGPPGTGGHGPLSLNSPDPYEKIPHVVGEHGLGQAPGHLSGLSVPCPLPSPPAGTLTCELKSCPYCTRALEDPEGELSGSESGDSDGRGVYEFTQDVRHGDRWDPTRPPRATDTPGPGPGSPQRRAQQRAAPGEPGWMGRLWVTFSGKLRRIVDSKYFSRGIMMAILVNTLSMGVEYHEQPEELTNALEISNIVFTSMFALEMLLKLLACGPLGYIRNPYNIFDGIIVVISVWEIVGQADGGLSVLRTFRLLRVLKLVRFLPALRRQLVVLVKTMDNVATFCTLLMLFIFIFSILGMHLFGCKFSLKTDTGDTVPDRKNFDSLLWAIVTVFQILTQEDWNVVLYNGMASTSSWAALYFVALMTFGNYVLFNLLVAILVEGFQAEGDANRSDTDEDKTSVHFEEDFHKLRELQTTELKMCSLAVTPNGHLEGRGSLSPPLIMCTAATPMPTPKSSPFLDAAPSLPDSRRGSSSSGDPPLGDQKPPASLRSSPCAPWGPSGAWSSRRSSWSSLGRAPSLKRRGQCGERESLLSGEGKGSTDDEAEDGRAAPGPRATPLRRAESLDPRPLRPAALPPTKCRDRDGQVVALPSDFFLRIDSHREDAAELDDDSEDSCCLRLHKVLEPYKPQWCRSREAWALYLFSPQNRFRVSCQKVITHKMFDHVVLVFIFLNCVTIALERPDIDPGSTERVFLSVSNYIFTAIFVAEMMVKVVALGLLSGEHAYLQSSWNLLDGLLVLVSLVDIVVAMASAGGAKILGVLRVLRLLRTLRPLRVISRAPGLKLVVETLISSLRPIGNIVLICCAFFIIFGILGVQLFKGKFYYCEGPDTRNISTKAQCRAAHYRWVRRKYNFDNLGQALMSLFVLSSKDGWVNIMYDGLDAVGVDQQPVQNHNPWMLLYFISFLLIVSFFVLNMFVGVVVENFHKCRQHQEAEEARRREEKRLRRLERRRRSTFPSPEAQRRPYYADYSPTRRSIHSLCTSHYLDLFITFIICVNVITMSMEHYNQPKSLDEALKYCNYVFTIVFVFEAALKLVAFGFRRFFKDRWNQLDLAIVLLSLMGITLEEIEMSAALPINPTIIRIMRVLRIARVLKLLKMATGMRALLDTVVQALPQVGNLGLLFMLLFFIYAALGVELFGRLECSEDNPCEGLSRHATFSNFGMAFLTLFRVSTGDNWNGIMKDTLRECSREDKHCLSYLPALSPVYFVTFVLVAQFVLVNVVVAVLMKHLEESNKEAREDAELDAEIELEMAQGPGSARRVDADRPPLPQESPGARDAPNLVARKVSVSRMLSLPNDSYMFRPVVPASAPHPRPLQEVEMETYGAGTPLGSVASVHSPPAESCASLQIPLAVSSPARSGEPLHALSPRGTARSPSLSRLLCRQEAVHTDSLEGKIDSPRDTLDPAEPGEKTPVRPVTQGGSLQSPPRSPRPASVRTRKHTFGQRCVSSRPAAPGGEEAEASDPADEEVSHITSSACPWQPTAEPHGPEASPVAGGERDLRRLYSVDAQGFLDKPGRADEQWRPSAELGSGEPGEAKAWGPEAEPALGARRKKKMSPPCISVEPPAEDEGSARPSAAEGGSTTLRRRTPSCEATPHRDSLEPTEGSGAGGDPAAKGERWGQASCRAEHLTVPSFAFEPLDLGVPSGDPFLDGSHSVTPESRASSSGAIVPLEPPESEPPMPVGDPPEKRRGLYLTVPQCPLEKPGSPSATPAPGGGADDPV
assay_text: Electrophysiologic (whole-cell patch-clamp) assessment of calcium channel activity in HEK293 cells stably expressing hCav3.2
Type: cell-based
test_parameters: −77 mV, geometric mean, read-out: Human Cav3.2 −77 mV IC50 (μM) GeoMean
result_type: IC50

See these solved cases before continuing.
O=C(c1cccc(S(=O)(=O)Nc2cccc(F)c2F)c1)N1CCN2CCC[C@@H]2C1 [Example 14]    3.7 µM
O=C(c1ccc(F)c(NS(=O)(=O)c2cccc(C(F)(F)F)c2)c1)N1CCN2CCC[C@@H]2C1 [Example 65]    1.84 µM
O=C(c1cccc(S(=O)(=O)Nc2ccc(C(F)(F)F)cc2)c1)N1CCN2CCCCC2C1 (stereo not shown) [Example 37]    1.1 µM
O=C(c1cccc(S(=O)(=O)Nc2ccc(F)cc2F)c1)N1CCN2CCC[C@@H]2C1 [Example 18]    9.3 µM

Human Cav3.2 Channels (Homo sapiens, UniProt O95180) data for O=C(c1cccc(S(=O)(=O)N2CCN3CCC[C@@H]3C2)c1)N1CCN(C(c2ccccc2)c2ccccc2)CC1 [Example 52] ; its IC50: 0.6 µM

Human Cav3.2 Channels (Homo sapiens, UniProt O95180) data for O=C(c1cccc(S(=O)(=O)Nc2ccc(C(F)(F)F)cc2)c1)N1CCN2CCC[C@@H]2C1 [Example 1] ; its IC50: > 10 µM

Human Cav3.2 Channels (Homo sapiens, UniProt O95180) data for O=C(c1cccc(S(=O)(=O)Nc2cccc(C(F)(F)F)c2)c1)N1CCN2CCCCC2C1 (stereo not shown) [Example 38] ; its IC50: 4.6 µM

###

tested_system: Human Cav3.2 Channels (Homo sapiens)
Construct: expressed in transfected cells
assay_text: Electrophysiologic (whole-cell patch-clamp) assessment of calcium channel activity in HEK293 cells stably expressing hCav3.2
Assay type: cell-based
test_parameters: −77 mV, geometric mean, read-out: Human Cav3.2 −77 mV IC50 (μM) GeoMean
Kindly note that classification relies on IC50 with these boundaries: small value (below 3 µM), mid value (3 µM to below 6 µM), large value (6 µM or more)

Some entries whose results are on file:
O=C(c1cccc(S(=O)(=O)N[C@@H]2C[C@H]2c2ccccc2)c1)N1CCN2CCC[C@H]2C1    large value
O=C(c1cccc(S(=O)(=O)Nc2cccc(Cl)c2)c1)N1CCN2CCC[C@@H]2C1    large value
O=C(c1cccc(S(=O)(=O)N2CCN(C(c3ccc(F)cc3)c3ccc(F)cc3)CC2)c1)N1CCN2CCC[C@H]2C1    small value
O=C(c1cccc(S(=O)(=O)Nc2ccccc2-c2ccccc2)c1)N1CCN2CCC[C@H]2C1    mid value
O=C(NCC(c1ccccc1)c1ccccc1)c1cccc(S(=O)(=O)N2CCN3CCC[C@H]3C2)c1    small value

Into which bin does this compound go? O=C(NC(c1ccccc1)c1ccccc1)c1cc(S(=O)(=O)N2CCN3CCC[C@H]3C2)c(F)cc1Cl
small value

###

tested_system: Human Cav3.2 Channels (Homo sapiens)
Construct: expressed in transfected cells
assay_text: Electrophysiologic (whole-cell patch-clamp) assessment of calcium channel activity in HEK293 cells stably expressing hCav3.2
Format: cell-based
test_parameters: −77 mV, geometric mean, read-out: Human Cav3.2 −77 mV IC50 (μM) GeoMean
result_type: IC50

See these solved cases before continuing.
O=C(c1cccc(S(=O)(=O)NCCC(c2ccccc2)c2ccccc2)c1)N1CCN2CCC[C@@H]2C1 [Example 29]    2.1 µM
O=C(c1ccc(Cl)c(NC(c2ccccc2)c2ccccc2)c1)N1CCN2CCC[C@@H]2C1 [Example 79]    8.5 µM
O=C(c1cccc(S(=O)(=O)Nc2ccccc2F)c1)N1CCC(N2CCCC2)CC1 [Example 45]    > 10 µM
O=C(c1cccc(S(=O)(=O)Nc2ccc(C(F)(F)F)cc2)c1)N1CCC(N2CCCC2)CC1 [Example 42]    5.8 µM

Sample O=C(c1cc(S(=O)(=O)N2CCN(c3ccc(F)cc3)CC2)c(F)cc1Cl)N1CCN2CCC[C@@H]2C1 [Example 67] ; IC50 observed: 3.18 µM

Sample O=C(Nc1ccc(C(=O)N2CCN3CCC[C@@H]3C2)cc1Cl)C(c1ccccc1)c1ccccc1 [Example 75] ; IC50 observed: 6.5 µM

Sample O=C(c1ccc(S(=O)(=O)N[C@H](CO)c2ccccc2)cc1)N1CCN2CCC[C@@H]2C1 [Example 62] ; IC50 observed: > 10 µM

Sample O=C(c1cccc(NC(c2ccccc2)c2ccccc2)c1)N1CCN2CCC[C@@H]2C1 [Example 80] ; IC50 observed: 2 µM

Sample O=C(N[C@@H]1C[C@H]1c1ccccc1)c1cccc(S(=O)(=O)N2CCN3CCC[C@H]3C2)c1 [Example 60] ; IC50 observed: 5 µM

Sample O=C(NCCC(c1ccccc1)c1ccccc1)c1cccc(S(=O)(=O)N2CCN3CCC[C@H]3C2)c1 [Example 55] ; IC50 observed: 1.8 µM

Sample O=C(c1cccc(S(=O)(=O)N2CCN(C(c3ccccc3)c3ccccc3)CC2)c1)N1CCN2CCC[C@H]2C1 [Example 28] ; IC50 observed: 1.9 µM

Sample CN(c1cccc(C(=O)N2CCN3CCC[C@@H]3C2)c1)S(=O)(=O)c1cccc(C(F)(F)F)c1 [Example 69] ; IC50 observed: > 10 µM

Sample O=C(Nc1cc(C(=O)N2CCN3CCC[C@@H]3C2)ccc1Cl)c1ccc(F)cc1 [Example 68] ; IC50 observed: 10.9 µM

Sample O=C(Nc1ccc(C(=O)N2CCN3CCC[C@@H]3C2)cc1Cl)c1ccc2ccccc2c1 [Example 76] ; IC50 observed: 6.4 µM

Sample O=C(c1cccc(S(=O)(=O)Nc2ccccc2)c1)N1CCC(N2CCCC2)CC1 [Example 41] ; IC50 observed: 5 µM

Sample O=C(c1cc(S(=O)(=O)Nc2ccccc2F)c(F)cc1Cl)N1CCN2CCC[C@@H]2C1 [Example 20] ; IC50 observed: 6 µM

Sample CN(c1ccccc1F)S(=O)(=O)c1cc(C(=O)N2CCN3CCC[C@@H]3C2)c(Cl)cc1F [Example 66] ; IC50 observed: 5.9 µM

Sample O=C(Nc1cc(C(=O)N2CCN3CCC[C@@H]3C2)ccc1Cl)C(c1ccccc1)c1ccccc1 [Example 78] ; IC50 observed: > 10 µM

###

tested_system: Human Cav3.2 Channels (Homo sapiens, UniProt O95180)
Construct: expressed in transfected cells
assay_text: Electrophysiologic (whole-cell patch-clamp) assessment of calcium channel activity in HEK293 cells stably expressing hCav3.2
Format: cell-based
test_parameters: −77 mV, geometric mean, read-out: Human Cav3.2 −77 mV IC50 (μM) GeoMean
Param label: returns t when IC50 < 5 µM, returns f otherwise, including exact equality.

Some entries whose results are on file:
O=C(c1cccc(S(=O)(=O)N2CCN3CCC[C@H]3C2)c1)N1CCN(C(c2ccc(F)cc2)c2ccc(F)cc2)CC1    t
O=C(c1cccc(S(=O)(=O)Nc2ccc(F)cc2)c1)N1CCC(N2CCCC2)CC1    t
O=C(c1ccc(Cl)c(S(=O)(=O)Nc2ccc(C(F)(F)F)cc2)c1)N1CCN2CCC[C@@H]2C1    f

Continue with the compound presented below.
Say whether its IC50 is strictly beneath 5 µM. Entry: O=C(c1cccc(S(=O)(=O)Nc2cccc(C(F)(F)F)c2)c1)N1CCN2CCC[C@H]2C1
t

###

tested_system: Human Cav3.2 Channels (Homo sapiens, UniProt O95180)
Construct: expressed in transfected cells
assay_text: Electrophysiologic (whole-cell patch-clamp) assessment of calcium channel activity in HEK293 cells stably expressing hCav3.2
Type: cell-based
test_parameters: −77 mV, geometric mean, read-out: Human Cav3.2 −77 mV IC50 (μM) GeoMean
Examples of compounds with documented IC50 follow.
// return numeric value only (unit: µM, not printed)

See these solved cases before continuing.
O=C(c1cccc(S(=O)(=O)Nc2ccccc2Cl)c1)N1CCN2CCC[C@@H]2C1 [Example 9]    7.3
O=C(c1cccc(S(=O)(=O)Nc2c(F)cccc2F)c1)N1CCN2CCC[C@H]2C1 [Example 4]    7.7

Kindly consider the entry below.
Sample O=C(c1cccc(S(=O)(=O)Nc2cccc(Cl)c2)c1)N1CCN2CCC[C@H]2C1 [Example 21] ; IC50 observed: 5.9

###

tested_system: Human Cav3.2 Channels (Homo sapiens, UniProt O95180)
Construct: expressed in transfected cells
assay_text: Electrophysiologic (whole-cell patch-clamp) assessment of calcium channel activity in HEK293 cells stably expressing hCav3.2
Type: cell-based
test_parameters: −77 mV, geometric mean, read-out: Human Cav3.2 −77 mV IC50 (μM) GeoMean
Procedure: (i) In Vitro Methods—Electrophysiologic Assessment of Calcium Channel Activity: Patch-clamp recordings were performed using HEK293 cells stably expressing hCav3.2. Cells were plated in T175 flasks and grown at 37° C. and under 5% CO2 to approximately 50% confluency. On the day of the experiment, cells were harvested with Detachin™ cell detachment solution (Genlantis, San Diego, Calif.) and maintained in serum-free culture medium supplemented with 25 mM HEPES up to several hours prior to experiment. […]
result_type: IC50 (µM)
// return numeric value only (unit: µM, not printed)

Sample O=C(c1cccc(S(=O)(=O)Nc2ccc(F)cc2F)c1)N1CCN2CCC[C@H]2C1 [Example 16] ; IC50 observed: 6

Sample O=C(c1cc(S(=O)(=O)NCCC(c2ccccc2)c2ccccc2)c(F)cc1Cl)N1CCN2CCC[C@H]2C1 [Example 59] ; IC50 observed: 9
